Assign pIC50 to each entry below.
Target: histamine-H1 receptors (Cavia porcellus)
Construct: performed in guinea pig cerebellum membranes as described previously; from tissue; host or cells: guinea pig cerebellum membranes
Sequence (P31389 whole entry): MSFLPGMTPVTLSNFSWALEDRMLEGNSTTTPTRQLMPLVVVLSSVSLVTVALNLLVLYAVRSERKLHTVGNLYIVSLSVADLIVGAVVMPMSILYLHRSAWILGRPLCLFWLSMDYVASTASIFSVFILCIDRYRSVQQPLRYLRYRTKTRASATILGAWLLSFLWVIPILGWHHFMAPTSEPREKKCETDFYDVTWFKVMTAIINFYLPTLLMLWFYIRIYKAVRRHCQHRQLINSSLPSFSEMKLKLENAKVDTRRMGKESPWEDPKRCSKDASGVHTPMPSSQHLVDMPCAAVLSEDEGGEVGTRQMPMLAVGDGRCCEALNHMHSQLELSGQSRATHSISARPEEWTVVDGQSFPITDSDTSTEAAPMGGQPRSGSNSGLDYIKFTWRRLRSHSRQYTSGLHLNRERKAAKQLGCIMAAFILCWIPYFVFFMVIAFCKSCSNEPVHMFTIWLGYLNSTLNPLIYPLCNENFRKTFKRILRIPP
Assay: Histamine-H1 receptor binding assay ([3H]-mepyramine displacement)
Parameters: species or system guinea pig
Conditions: guinea pig cerebellum membranes, 0.7 nM [3H]-mepyramine, 30 min at 30° C.; read-out: Binding to receptor H1 (IC50)
Scale: negative log10 of molar concentration, which is what pIC50 denotes.

Please tell me the measured pIC50 for O=C(O)c1ccccc1OCCN1CCC(c2cn(CCC3OCCO3)c3cc(F)ccc23)CC1 [Example 24] ; system: histamine-H1 receptors (Cavia porcellus). 7.29

Please tell me the measured pIC50 for O=C(O)c1cccc(CN2CCC(c3cn(CCC4OCCO4)c4ccccc34)CC2)c1 [Example 28] ; system: histamine-H1 receptors (Cavia porcellus). 6.69

Please tell me the measured pIC50 for COc1ccc(CN2CCC(c3cn(Cc4ccco4)c4ccccc34)CC2)cc1C(=O)O [Example 85] ; system: histamine-H1 receptors (Cavia porcellus). 7.00
